- assayed_system: T1, TrnC (Bacillus thuringiensis, fluorescently labeled with RED-NHS (in the MST experiments where TrnC is the labelled partner))
- T1 chain: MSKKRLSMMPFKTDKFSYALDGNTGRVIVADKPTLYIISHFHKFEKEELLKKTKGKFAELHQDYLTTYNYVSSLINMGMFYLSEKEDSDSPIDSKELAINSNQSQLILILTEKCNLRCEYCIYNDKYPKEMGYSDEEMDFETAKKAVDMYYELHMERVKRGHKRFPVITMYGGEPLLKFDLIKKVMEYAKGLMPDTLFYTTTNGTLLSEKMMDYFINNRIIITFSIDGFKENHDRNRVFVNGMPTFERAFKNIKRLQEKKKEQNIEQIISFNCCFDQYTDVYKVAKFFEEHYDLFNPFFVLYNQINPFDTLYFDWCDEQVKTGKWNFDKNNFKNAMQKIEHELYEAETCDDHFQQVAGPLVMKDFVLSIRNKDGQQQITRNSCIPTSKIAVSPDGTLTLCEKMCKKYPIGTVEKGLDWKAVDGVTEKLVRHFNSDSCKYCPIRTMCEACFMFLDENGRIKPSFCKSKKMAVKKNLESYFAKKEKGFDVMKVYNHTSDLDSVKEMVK
- measurement_description: MST
Would you mind telling me the reported Kd of each entry?
Give a bare numeral; the unit µM is implied.

For the binder MEVMNNALITKVDEEIGGNAACVIGCIGSCVISEGIGSLVGTAFTLG [TrnA] , what Kd is on record?
5.41

For the binder MEVLNKQNVNIIPESEEVGGWVACVGACGTVCLASGGVGTEFAAASYFL [TrnB] , what Kd is on record?
2.47
